Tested on: A549/ATCC NSCLC
Assay: NCI-60 one-dose screen, 48 h (100 = growth as untreated, 0 = no growth, -100 = all killed)
Settings: 10 µM unless noted
About 83,000 compounds went through this panel and 20% of them were active in at least one assay; those are over-represented in the sample as a whole.
measured endpoint: growth (%)
Write down the numeric answer in % and omit the unit.

Need growth, item NC(N)=NC1CCCCC1
94.1

Item under review: COc1ccc(-c2cnc(-c3ccncc3-c3cccc(OC)c3)o2)cc1 . Reported growth?
30.7

Which growth is reported for this compound? COc1cc(OC)c2sc(-c3ccc(-n4cncc4-c4ccc(OC)c(N)c4)cc3)nc2c1
62.7

Return reported growth; argument: COc1ccc(C(=O)N2N=C(c3ccc(F)cc3)CC2c2cn(-c3ccccc3)nc2-c2ccccc2)cc1 (stereo not given)
41.1

What value of measured growth is listed for CC(C)c1ccc(-c2cnc3nonc3n2)cc1 ?
53.2

So what's the measured growth for this one? COc1ccc(NC(=O)Cn2c(=O)sc3c(-c4ccc(Cl)cc4)cc(-c4ccc(Cl)cc4)nc32)cc1
96.7

Given the compound CC(C)(C)[Si](C)(C)OC1[C@@H](CNC(N)=O)O[C@@H](n2cnc3c(NC(=O)Nc4ccccc4)ncnc32)[C@H]1O[Si](C)(C)C(C)(C)C (stereo not given in full) , what is its reported growth?
37.6

growth lookup needed for COc1cc(C2CC(=O)Nc3c2cnn3C)cc(OC)c1OC (stereo not given) , thanks.
107

Give its growth value. Item: Fc1ccc(-c2cnc3nonc3n2)c(F)c1
109

Which growth is reported for this compound? Nc1c(C(=O)C[C@@H](N)CO)ccc2c1C(=O)CCO2
40.4
